Biological target: GST-ARV1-N50 (Homo sapiens, UniProt Q9H2C2)
Construct: Expresses amino-terminal 50 amino acids of ARV1; made in house; host or cells: E. coli BL21 (pGEX-4T1)
Sequence (Q9H2C2 1-50): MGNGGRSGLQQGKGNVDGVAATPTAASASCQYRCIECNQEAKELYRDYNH
Assay: Lipid overlay far western, truncation
Type: binding
Conditions: compared to ARV1-N98 / ARV1-N70
value type: change of lipid-protein interaction

Quote change of lipid-protein interaction with test system GST-ARV1-N50 (Homo sapiens, UniProt Q9H2C2) for CCCCCCCC/C=C\CCCCCCCC(=O)OC[C@H](COP(=O)(O)OCC(O)CO)OC(=O)CCCCCCC/C=C\CCCCCCCC (stereo partly drawn)
eliminated

Quote change of lipid-protein interaction with test system GST-ARV1-N50 (Homo sapiens, UniProt Q9H2C2) for CCCCCC(=O)O[C@H](COC(=O)CCCCCNC(=O)CCCC[C@@H]1SC[C@@H]2NC(=O)N[C@@H]21)COP(=O)(O)O[C@H]1[C@H](O)[C@@H](OP(=O)(O)O)[C@H](O)[C@@H](O)[C@H]1O [PI(5)P, reference compound]
eliminated
